Cited source: patent US8013008B2

Each entry below carries its reported Induction rate (%) at 100 nM.
- target-of-assay: AR (Homo sapiens, UniProt P10275)
- Construct: expressed in transfected cells; host or cells: Cos-7
- test-name: Reporter assay system using Cos7 cell (AR gene + MMTV androgen responsive promoter-luciferase)
- Format: cell-based
- condition-context: 100 nM compound, 24 hr; Cos-7 co-transfected with AR and MMTV-luciferase vectors; luciferase activity induced by 1 μM 5α-dihydrotestosterone taken as 100
quantity-name: Induction rate (%) at 100 nM

> print(dat)
                            smiles.notation                    target.of.assay  reported.value
1    C[C@@H]1N(c2ccc(C#N)c(F)c2)CC[C@]1(C)O  AR (Homo sapiens, UniProt P10275)             65%
2  CC[C@]1(O)CCN(c2cc(F)c(C#N)c(F)c2)[C@H]1C  AR (Homo sapiens, UniProt P10275)            107%
3  C[C@@H]1C[C@](C)(O)[C@H](C)N1c1ccc(C#N)c(Cl)c1  AR (Homo sapiens, UniProt P10275)             37%
4  C[C@@H]1N(c2ccc(C#N)c(F)c2)CC[C@@]1(O)C1CC1  AR (Homo sapiens, UniProt P10275)             77%
5  C[C@@H]1N(c2ccc(C#N)c(Cl)c2)CC[C@@]1(O)C(F)(F)F  AR (Homo sapiens, UniProt P10275)             89%
6  CC(C)[C@@H]1N(c2cc(F)c(C#N)c(F)c2)CC[C@]1(C)O  AR (Homo sapiens, UniProt P10275)             59%

###

- target-of-assay: wild-type androgen receptor (AR) (Homo sapiens)
- Sequence (P10275 1-920): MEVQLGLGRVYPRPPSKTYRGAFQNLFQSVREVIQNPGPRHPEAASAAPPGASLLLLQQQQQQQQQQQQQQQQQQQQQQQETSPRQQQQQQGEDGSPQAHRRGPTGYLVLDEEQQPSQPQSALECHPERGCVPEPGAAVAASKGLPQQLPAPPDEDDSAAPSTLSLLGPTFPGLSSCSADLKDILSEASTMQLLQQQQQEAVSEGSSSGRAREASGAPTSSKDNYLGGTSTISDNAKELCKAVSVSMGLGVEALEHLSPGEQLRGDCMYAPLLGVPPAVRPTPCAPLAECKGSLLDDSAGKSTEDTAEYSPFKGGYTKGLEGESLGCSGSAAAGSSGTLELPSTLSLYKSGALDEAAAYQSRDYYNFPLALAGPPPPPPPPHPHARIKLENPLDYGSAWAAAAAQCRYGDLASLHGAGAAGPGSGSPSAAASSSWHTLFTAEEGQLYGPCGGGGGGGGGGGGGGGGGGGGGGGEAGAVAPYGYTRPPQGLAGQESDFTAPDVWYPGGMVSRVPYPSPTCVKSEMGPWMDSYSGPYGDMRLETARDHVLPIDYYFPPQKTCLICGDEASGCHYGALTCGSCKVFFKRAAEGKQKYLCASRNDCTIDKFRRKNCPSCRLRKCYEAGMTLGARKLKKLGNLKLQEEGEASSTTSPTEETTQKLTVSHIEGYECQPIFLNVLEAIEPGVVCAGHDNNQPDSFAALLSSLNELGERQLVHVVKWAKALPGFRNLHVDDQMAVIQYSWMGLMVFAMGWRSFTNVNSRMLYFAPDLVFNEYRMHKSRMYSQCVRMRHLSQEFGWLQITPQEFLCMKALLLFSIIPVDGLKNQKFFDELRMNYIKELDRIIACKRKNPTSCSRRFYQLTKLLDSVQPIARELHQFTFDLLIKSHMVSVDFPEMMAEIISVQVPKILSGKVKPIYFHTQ
- test-name: AR binding inhibitory test (wild-type)
- condition-context: 100 nM compound; 3 nM radiolabeled mibolerone; 4° C., 3 hr; dextran/charcoal B/F separation; read-out: Inhibitory rate (%) at 100 nM
# inhibition at 0.1 µM listing for each entry below
quantity-name: inhibition at 0.1 µM (%)

> print(dat)
                                   compound         quantity.name  reported.value
1  C[C@@H]1N(c2ccc(C#N)c(F)c2)CC[C@@]1(O)C1CC1 [Example 32]  inhibition at 0.1 µM              98
2  C[C@@H]1C[C@](C)(O)[C@H](C)N1c1ccc(C#N)c(Cl)c1 [Example 60]  inhibition at 0.1 µM              92
3  C[C@@H]1N(c2ccc(C#N)c(F)c2)CC[C@]1(C)O [Example 1]  inhibition at 0.1 µM              95
4  CC(C)[C@@H]1N(c2cc(F)c(C#N)c(F)c2)CC[C@]1(C)O [Example 20]  inhibition at 0.1 µM              98
5  CC[C@]1(O)CCN(c2cc(F)c(C#N)c(F)c2)[C@H]1C [Example 7]  inhibition at 0.1 µM              98
6  C[C@@H]1N(c2ccc(C#N)c(Cl)c2)CC[C@@]1(O)C(F)(F)F [Example 18]  inhibition at 0.1 µM             100
